tested on: CD2F1 mice, L1210 leukemia ip, survival T/C; assay: NCI In Vivo Anticancer Drug Screen. Data for tumor model L1210 Leukemia (intraperitoneal) in CD2F1 (CDF1) mice; details: endpoint: median survival time; dose: 50.0 mg/kg/injection; schedule: Q01DX009 (ip); vehicle: saline with Tween-80
Toxic doses and inconclusive results are not listed. The calls were made as follows: active = survival T/C of 150% or more; inactive = T/C below 125% in these data.
The reply should be one of these categories: active, inactive

Which outcome was assigned to C=CCOc1cc2c(cc1C(C)c1ccc(OC)cc1)OCO2 (stereo not given) in this test?
inactive

###

Assignment: determine reported T/C for the given compounds.
tested on: CD2F1 mice, L1210 leukemia ip, survival T/C; assay: NCI In Vivo Anticancer Drug Screen. Data for tumor model L1210 Leukemia (intraperitoneal) in CD2F1 (CDF1) mice; conditions: endpoint: mean survival time; dose: 6.25 mg/kg/injection; schedule: Q01DX009 (ip); vehicle: saline with Tween-80; higher = longer survival
Inconclusive results and toxic doses are left out.

1. O=[N+]([O-])c1ccc(SSC(Cl)(Cl)Cl)cc1 :: 101 % of control

Parameter requested: T/C. Apply to each item below.
1. CSc1ccc(N=C=C(c2ccccc2)c2ccccc2)cc1
2. CC(C)c1ccccc(=O)c1O.CC(C)c1ccccc(=O)c1O.[Cu]
3. COC(=O)[CH](C[N+](=O)[O-])[Hg][Cl] (stereo not given)

1: 96 % of control; 2: 102 % of control; 3: 97 % of control

###

system: CD2F1 mice, L1210 leukemia ip, survival T/C; assay: NCI In Vivo Anticancer Drug Screen. Data for tumor model L1210 Leukemia (intraperitoneal) in CD2F1 (CDF1) mice; conditions: endpoint: mean survival time; dose: 200.0 mg/kg/injection; schedule: Q04DX003 (ip); vehicle: saline sonified; higher = longer survival
Inconclusive results and toxic doses are left out.
Exercise: state measured T/C for each of the molecules provided.

1. CC1c2ccccc2C=CN1C (stereo not given) :: 106 % of control
2. CC1CC(C)(C)CC2CC(C(=O)O)(C(=O)O)CC12 (stereo not given) :: 96 % of control
3. CC(=O)NCCc1ccccc1 :: 109 % of control
4. N#CSC/C(=N\Nc1ccc([N+](=O)[O-])cc1[N+](=O)[O-])c1ccccc1 :: 102 % of control

// below: T/C requested for another molecule
Please supply the value of reported T/C for the item `CN(C)S(=O)(=O)c1ccccc1C(=O)O`
100 % of control

###

Consider the following compounds; for each one, report its T/C.
system: CD2F1 mice, L1210 leukemia ip, survival T/C; assay: NCI In Vivo Anticancer Drug Screen. Data for tumor model L1210 Leukemia (intraperitoneal) in CD2F1 (CDF1) mice; conditions: endpoint: mean survival time; dose: 100.0 mg/kg/injection; schedule: Q01DX001 (ip); vehicle: saline sonified; higher = longer survival
Inconclusive results and toxic doses are left out.

1) COC(=O)/C=C/c1ccc(O)cc1 :: 102 % of control

I need T/C for every entry listed below, if you could help.
1. O=C(Nc1ccc(Oc2ccc(Cl)c(Cl)c2)c(Cl)c1)Nc1cc(Cl)c(Cl)cc1S(=O)(=O)O
2. N#C/C(=C/c1ccccc1Cl)C(N)=O
3. CCOC(=O)NC(=O)OCC

96 % of control
103 % of control
102 % of control

Answer briefly: T/C recorded on CD2F1 mice, L1210 leukemia ip, survival T/C for CCCCCCCCCCCCCCCCC1CCCC1C1CCCC1 (stereo not given)
102 % of control

###

tested on: CD2F1 mice, L1210 leukemia ip, survival T/C; experiment: NCI In Vivo Anticancer Drug Screen. Data for tumor model L1210 Leukemia (intraperitoneal) in CD2F1 (CDF1) mice; conditions: endpoint: mean survival time; dose: 25.0 mg/kg/injection; schedule: Q04DX003 (ip); vehicle: saline; higher = longer survival
Inconclusive results and toxic doses are left out.
Provide the recorded T/C for the entries that follow.

The cases that follow already have their T/C on record.
1. Cc1ccc(NCCNCC(C)(C)O)c2c(=O)c3ccccc3sc12 :: 103 % of control
2. CC[N+]1(C2CCC3CCC2C3O)CCOCC1 (stereo not given) :: 95 % of control
3. CC(=O)Nc1ccc2nc3ccc(NC(C)=O)cc3[n+](-c3ccccc3)c2c1 :: 123 % of control
4. Cc1nc(Cl)c2cnccn12 :: 100 % of control

Please list T/C recorded for the molecule `Cc1cc[n+](CCc2ccccc2)cc1`
95 % of control

###

Tested on: CD2F1 mice, L1210 leukemia ip, survival T/C
Test: NCI In Vivo Anticancer Drug Screen. Data for tumor model L1210 Leukemia (intraperitoneal) in CD2F1 (CDF1) mice
Details: endpoint: median survival time; dose: 25.0 mg/kg/injection; schedule: Q01DX009 (ip); vehicle: saline; higher = longer survival
Experimental: The antitumor activity of compounds was measured in mice bearing transplantable tumors. Survival or tumor size were measured and the results are expressed as the measurement made in the treated group (T) divided by the measurement made in the vehicle treated control group (C). The tumor model used in this assay is L1210 Leukemia (intraperitoneal) in CD2F1 (CDF1) mice
Toxic doses and inconclusive results are not listed.
experimental endpoint: T/C

1) Nc1ncnc2c1ncn2C1OC(CO)C(O)C1O (centres undefined) :: 115 % of control

Dear colleague, could you please provide T/C for the compounds listed below?
1. C=C1C(=O)OC2CC(C)C3C4OC4C(O)C3(C)C(O)C12 (centres undefined)
2. Cc1ccccc1CN1C2=NCCN2C(=O)C2=C1CCN(S(=O)(=O)c1ccc(Cl)c(S(N)(=O)=O)c1)C2
3. CN=C(N)N/N=C(\c1ccccc1)c1ccc(Br)cc1

107 % of control
95 % of control
121 % of control

###

system: CD2F1 mice, L1210 leukemia ip, survival T/C; assay: NCI In Vivo Anticancer Drug Screen. Data for tumor model L1210 Leukemia (intraperitoneal) in CD2F1 (CDF1) mice; details: endpoint: mean survival time; dose: 100.0 mg/kg/injection; schedule: Q04DX003 (ip); vehicle: saline with Tween-80; higher = longer survival
Inconclusive results and toxic doses are left out.
experimental endpoint: T/C

Here's what some known entries look like.
1) Clc1ccc(OCC2CO2)cc1 (configuration not stated) :: 98 % of control
2) COc1ccc([Si](F)(c2ccc(OC)cc2)c2ccc(OC)cc2)cc1 :: 95 % of control
3) O=C(O)CCCCCc1ccccc1 :: 102 % of control

Quick batch: T/C for everything below.
1. O=C(COc1ccccc1)NCc1ccccc1Cl
2. CCOC(=O)C1=C(C)NC(C)=C(C(=O)OCC)C1c1ccc(OC)cc1
3. CC12CS(=O)(=O)CC1O2 (configuration not stated)
4. CCC(C)OC(=O)Nc1cccc(OC(=O)N(C)C)c1 (configuration not stated)

1. 100 % of control
2. 97 % of control
3. 101 % of control
4. 97 % of control

###

test system: CD2F1 mice, L1210 leukemia ip, survival T/C; assay: NCI In Vivo Anticancer Drug Screen. Data for tumor model L1210 Leukemia (intraperitoneal) in CD2F1 (CDF1) mice; settings: endpoint: mean survival time; dose: 400.0 mg/kg/injection; schedule: Q01DX001 (ip); vehicle: saline; higher = longer survival
Toxic doses and inconclusive results are not listed.
experimental endpoint: T/C

1. O=c1[nH]c2c(c(=O)n1-c1ccccc1)CCCS2 :: 103 % of control
2. CC1(O)CS(=O)(=O)CC1O (stereo unspecified) :: 101 % of control
3. O=[N+]([O-])c1ccc(/C(CBr)=N/N2CCCCCC2)cc1 :: 95 % of control
4. CCC(=O)c1ccc(OCOc2ccc(C(=O)CC)cc2OC)c(OC)c1 :: 91 % of control
5. CCCOC(=O)C(C(=O)OCCC)(C(=O)OCCC)C(=O)OCCC :: 93 % of control

Please look at the items below and tell me T/C for each one, in order.
1. CC(C)NCC(O)c1ccc(O)c(O)c1 (stereo unspecified)
2. CCN=C(N)/N=C(\N)C(Cl)(Cl)Cl
3. COC1=C(OC)C(=O)C(C/C=C(\C)CC/C=C(\C)CC/C=C(\C)CC/C=C(\C)CC/C=C(\C)CC/C=C(\C)CC/C=C(\C)CC/C=C(\C)CC/C=C(\C)CCC=C(C)C)=C(C)C1=O

110 % of control
90 % of control
94 % of control

Hi! Can you tell me T/C for each of these compounds?
1. COC(=O)C1c2cc3c(c(O)c2CCC1(C)O)C(=O)c1c(O)cc2c(c1C3=O)OC1OC2(C)C(O)C(N(C)C)C1O (stereo unspecified)
2. CC(=O)Oc1ccccc1N(C(C)=O)S(=O)(=O)c1ccc(C)cc1
3. c1ccc2c(P(c3cccc4ccccc34)c3cccc4ccccc34)cccc2c1
4. CN(C)C(C)(CO)CO
5. CC1CCC2(C(=O)O)CCC3(C)C(=CCC4C5(C)CCC(O)C(C)(C)C5CCC43C)C2C1C (stereo unspecified)
6. O=C(O)c1cc2ccccc2s1

["104 % of control", "100 % of control", "89 % of control", "113 % of control", "96 % of control", "92 % of control"]

# per-item lookup of T/C; items listed below
1. CC(Br)C(=O)c1ccc(OC(=O)c2ccccc2)cc1 (stereo unspecified)
2. CCOC(=O)/C=C(/C)N
3. CC(=O)[c-]1[c-][c-][c-][c-]1.[Fe+2].[c-]1[c-][c-][cH-][c-]1
4. O=P1(C(Cl)Cl)OCCCO1
5. COC1(O)C(=O)c2ccccc2OC1(OC)c1ccc(C)cc1 (stereo unspecified)

100 % of control
107 % of control
100 % of control
100 % of control
98 % of control

Below is a list of compounds. For each, state its recorded T/C.
1. CNC(=O)ON=C(c1ccccc1)c1ccccc1
2. CCOC(=O)CSc1ccc(F)cc1
3. O=CN(Cc1ccccc1)c1cc([N+](=O)[O-])ccc1OCc1ccccc1
4. NC(=O)c1ncn(C2OC(COP(=O)(O)O)C(O)C2O)c1N (stereo unspecified)
5. O=C(O)c1ccccc1.[Pb]

102 % of control
91 % of control
100 % of control
101 % of control
96 % of control

Quick batch: T/C for everything below.
1. c1cc(CSc2ncnc3nc[nH]c23)ccn1
2. COC(=O)C(O)C(O)C(O)C(O)C(O)CO (stereo unspecified)

1. 119 % of control
2. 96 % of control
